Target: T1, cynomolgus SIRP-α (cynomolgus monkey, UniProt Q5TFQ8 30-148 (human entry), limits assumed)
T1 construct: also called cyno1
T1 chain: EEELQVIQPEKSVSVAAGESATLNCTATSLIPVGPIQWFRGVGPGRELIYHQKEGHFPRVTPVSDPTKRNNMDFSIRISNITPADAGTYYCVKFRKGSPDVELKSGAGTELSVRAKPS
Assay: SPR, antibody on GLC chip
Response field label takes condition met when Kd is strictly below 0.1 nM and condition not met in all other cases.

Binder	Class Label
antibody 119 variant, light chain wt / heavy chain Mut (antibody, human IgG1, V domains shown) VH: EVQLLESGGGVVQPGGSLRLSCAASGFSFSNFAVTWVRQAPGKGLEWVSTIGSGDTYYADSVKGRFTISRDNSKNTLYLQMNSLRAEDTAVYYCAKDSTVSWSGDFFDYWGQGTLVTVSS VL: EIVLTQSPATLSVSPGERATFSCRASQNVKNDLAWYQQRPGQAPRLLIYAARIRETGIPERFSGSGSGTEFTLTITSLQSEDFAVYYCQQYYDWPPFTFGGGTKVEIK	condition not met
antibody 135 variant, light chain wt / heavy chain Mut_V34M (antibody, V domains shown) VH: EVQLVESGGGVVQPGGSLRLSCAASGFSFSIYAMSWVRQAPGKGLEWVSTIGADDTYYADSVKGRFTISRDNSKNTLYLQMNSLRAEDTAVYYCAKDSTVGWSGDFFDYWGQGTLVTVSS VL: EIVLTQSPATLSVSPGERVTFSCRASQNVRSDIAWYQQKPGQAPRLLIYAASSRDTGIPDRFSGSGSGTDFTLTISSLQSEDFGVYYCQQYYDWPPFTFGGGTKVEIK	condition met
antibody 135 variant, light chain wt / heavy chain Mut (antibody, V domains shown) VH: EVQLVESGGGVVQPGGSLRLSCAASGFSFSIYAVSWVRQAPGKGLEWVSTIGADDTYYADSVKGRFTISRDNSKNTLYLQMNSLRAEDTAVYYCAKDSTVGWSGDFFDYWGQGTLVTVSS VL: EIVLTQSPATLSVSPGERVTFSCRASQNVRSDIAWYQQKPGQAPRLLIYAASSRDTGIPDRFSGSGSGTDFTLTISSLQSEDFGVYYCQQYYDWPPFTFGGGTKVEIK	condition not met
antibody 135 variant, light chain Mut / heavy chain Mut (antibody, V domains shown) VH: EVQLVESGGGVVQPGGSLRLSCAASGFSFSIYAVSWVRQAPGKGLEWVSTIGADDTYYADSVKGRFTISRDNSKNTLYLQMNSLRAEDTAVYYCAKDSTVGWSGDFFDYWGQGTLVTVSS VL: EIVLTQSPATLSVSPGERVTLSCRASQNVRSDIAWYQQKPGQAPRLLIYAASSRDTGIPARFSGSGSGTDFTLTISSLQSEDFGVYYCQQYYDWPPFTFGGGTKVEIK	condition not met
antibody 119 variant, light chain Mut / heavy chain Mut (antibody, V domains shown) VH: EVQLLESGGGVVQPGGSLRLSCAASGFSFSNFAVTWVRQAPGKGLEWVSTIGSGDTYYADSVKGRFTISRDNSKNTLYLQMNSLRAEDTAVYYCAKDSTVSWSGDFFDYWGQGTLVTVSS VL: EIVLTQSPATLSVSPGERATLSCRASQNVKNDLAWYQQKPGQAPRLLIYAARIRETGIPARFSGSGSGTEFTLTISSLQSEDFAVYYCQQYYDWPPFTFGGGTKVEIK	condition not met
antibody 119 variant, light chain Mut / heavy chain wt (antibody, V domains shown) VH: DVQLLESGGGVVQPGGSLRLSCAASGFSFSNFAMTWVRQAPGEGLEWVSTIGSGDTYYADSVKGRFTISRDNSKNTLYLQMNSLRAEDTAVYYCAKDSTVSWSGDFFDYWGLGTLVTVSS VL: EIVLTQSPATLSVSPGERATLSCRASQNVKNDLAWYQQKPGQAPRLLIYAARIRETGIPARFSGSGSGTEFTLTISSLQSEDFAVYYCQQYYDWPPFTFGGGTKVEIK	condition not met
antibody 135 (antibody, V domains shown, also called AB135; S135) VH: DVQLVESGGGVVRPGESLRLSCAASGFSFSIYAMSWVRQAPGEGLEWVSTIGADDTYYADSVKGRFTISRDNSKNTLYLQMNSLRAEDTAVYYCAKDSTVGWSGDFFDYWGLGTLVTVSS VL: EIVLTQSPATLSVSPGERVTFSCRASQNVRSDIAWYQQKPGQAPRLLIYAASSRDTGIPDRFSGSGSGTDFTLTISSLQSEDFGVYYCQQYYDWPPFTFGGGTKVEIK	condition met
antibody 136 variant, light chain Mut_I2T / heavy chain Mut_V34M (antibody, V domains shown) VH: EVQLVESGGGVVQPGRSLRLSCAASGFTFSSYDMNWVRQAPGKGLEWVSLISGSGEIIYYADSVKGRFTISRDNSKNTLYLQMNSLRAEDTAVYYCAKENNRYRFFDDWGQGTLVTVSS VL: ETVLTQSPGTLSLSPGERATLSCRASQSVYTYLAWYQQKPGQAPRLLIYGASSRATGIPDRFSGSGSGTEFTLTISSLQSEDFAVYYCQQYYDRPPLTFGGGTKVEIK	condition not met
antibody 119 (antibody, V domains shown, also called AB119; S119) VH: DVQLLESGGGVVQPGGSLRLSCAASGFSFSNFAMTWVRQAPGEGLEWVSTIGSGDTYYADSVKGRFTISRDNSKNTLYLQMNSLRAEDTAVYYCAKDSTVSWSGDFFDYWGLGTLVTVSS VL: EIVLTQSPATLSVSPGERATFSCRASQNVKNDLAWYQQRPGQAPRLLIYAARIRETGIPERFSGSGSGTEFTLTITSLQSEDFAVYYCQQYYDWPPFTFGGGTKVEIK	condition not met
antibody 119 variant, light chain Mut / heavy chain Mut_V34M (antibody, V domains shown) VH: EVQLLESGGGVVQPGGSLRLSCAASGFSFSNFAMTWVRQAPGKGLEWVSTIGSGDTYYADSVKGRFTISRDNSKNTLYLQMNSLRAEDTAVYYCAKDSTVSWSGDFFDYWGQGTLVTVSS VL: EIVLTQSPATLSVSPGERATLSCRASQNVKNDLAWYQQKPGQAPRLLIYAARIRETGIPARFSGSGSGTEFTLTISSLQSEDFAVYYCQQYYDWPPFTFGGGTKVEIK	condition not met
